Test system: GSK3A
Conditions: concentration: 1 μM, replicates: in singlicate; n = 1;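 note: KINOMEscan kinase panel screen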
QUANTITY: %Inh (%)
Please reply with the bare figure in % and do not write the unit itself.

Some solved cases for reference:
COc1ccc(Nc2nccc(N3CCC(NS(=O)(=O)c4ccc(NC(C)=O)cc4)C3)n2)cc1 (stereo not shown) [GSK1379729] = 0
COc1ccc(-c2cc3c(C)nc(N)nc3n([C@H]3CC[C@H](OCCO)CC3)c2=O)cn1 = 0
COc1cc(Nc2nccc(N3CCC(NC(=O)C(C)c4ccc(Cl)cc4)C3)n2)cc(OC)c1OC (stereo not shown) [GSK1379757] = 0
COc1cccc(-n2cnc3c(N)ncnc32)c1 [SKF-97416] = 0
Cn1c(=O)c(F)c(Nc2ccc(I)cc2F)c2c(=O)n(OC[C@H](O)CO)cnc21 = 0

Look up GSK3A data: %Inh of COc1cc2ncn(-c3cc(OCc4ccncc4Br)c(C(N)=O)s3)c2cc1OC [GW854278] , then report it. 7

GET %Inh where system = GSK3A and item = O=C(Nc1ccc2c(c1)OCO2)NC1CCN(c2ccnc(NCc3ccc(F)cc3)n2)CC1 [GSK1379859] 2

Report measured %Inh on GSK3A; entry: O=C(NCCNc1ccnc(Nc2ccc(F)cc2)n1)Nc1ccc2c(c1)OCO2 [GSK1379882] 34

State the measured %Inh (GSK3A) of Cc1nn2c(=O)cc(N3CCOCC3)nc2n1Cc1cccc(Cl)c1Cl [GSK2342769] 10

State, for GSK3A, measured %Inh of the compound listed here: COc1cccc(C2=C(N(C)c3ccccc3)C(=O)NC2=O)c1 [SB-334865] 0

Please tell me the measured %Inh for CCCNC(=O)Nc1ccc(Oc2ncnc3ccn(C)c23)cc1 ; system: GSK3A. 0

Fetch value of %Inh on GSK3A for O=C(Nc1n[nH]c2nc(-c3ccccc3)c(Br)cc12)C1CC1 [SB-708998] . 90.3

Write down measured %Inh (GSK3A) for this compound. O=C(Nc1n[nH]c2cc(-c3ccccc3F)ccc12)C1CC1 [SB-733371] 24

State %Inh on GSK3A. Entry: COc1cc2ncn(-c3cc(OCCCc4ccccc4)c(C(N)=O)s3)c2cc1OC [GSK205189] 10

Jot down %Inh (GSK3A) of CN(C)c1cc(-c2ccc3c(N)n[nH]c3c2)nc(N)n1 [GSK2219329] . 0

Report %Inh from GSK3A testing of OCCCNc1nccc(-c2c(-c3cccc(C(F)(F)F)c3)nn3cc(C(F)(F)F)ccc23)n1 [GW630813] 0

---

Test system: BMPR1A
Conditions: concentration: 1 μM, replicates: in singlicate; n = 1
QUANTITY: %Inh
A complete answer gives the number and then names the unit.

# annotated cases, reported %Inh shown
Nc1nc(-c2ccccc2F)c(-c2ccnc3ccccc23)s1 [GW560459] = 0%
COc1ccc(-c2coc3ccc(-c4nnc(SCc5cccc(C#N)c5)o4)cc23)cc1 = 14%
Cc1ccc(-c2ccc3c(ccc4sc5c(c43)NC[C@@H](C)N=C5N(C)C)n2)cn1 = 0%

Report measured %Inh; entry is COC(=O)c1c(-c2ccccc2)c2cc(Br)ccc2c(=O)n1Cc1ccc(NC(=O)CCC(=O)O)cc1 0%

Quote %Inh reported for CCC(=O)c1c(-c2ccccc2)c2cc(Cl)ccc2c(=O)n1Cc1cc(S(C)(=O)=O)n(CCC(C)(C)O)n1 please. 0%

Fill in %Inh for record O=C(NCc1cccs1)c1cc(C(=O)c2c(Cl)cccc2Cl)c[nH]1 [GW823670] 7%

For the molecule COC(=O)c1c(-c2ccccc2)c2cc(C)ccc2c(=O)n1Cc1ccccc1 , give its measured %Inh value. 0%

Name the recorded %Inh of the item COc1cccc(C2=C(Nc3cccc(C(=O)O)c3)C(=O)NC2=O)c1 [SB-390770] in your answer. 12%

Hey, just so you know, these numbers are from paper PMC5540273.
